- System: 883617-216-R-J1-PDC complex spheroids, growth, % test/control;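 also: exposure lasted 7 days after dosing on day 3 of spheroid growth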
- procedure summary: Anticancer human tumor 883617-216-R-J1-PDC patient-derived bladder carcinoma cell line growth inhibition [AhR]
- experimental parameters: second compound 0.316 µM; first compound 10 µM; stronger effect = lower value
# label = criterion met if viability, T/C < 50% else criterion not met

Check out these entries, answers already filled in.
compound	class label
CC1COCCN1c1cc(C2(S(C)(=N)=O)CC2)nc(-c2ccnc3[nH]ccc23)n1 (configuration not stated) + Cc1ccccc1N=Nc1ccc(NC(=O)c2ccnn2C)c(C)c1	criterion not met
COc1cc(Nc2ncc3c(n2)-c2ccc(Cl)cc2C(c2c(F)cccc2OC)=NC3)ccc1C(=O)O + Cc1cncc(-c2nc(NCCc3c[nH]c4ccccc34)c3ncn(C(C)C)c3n2)c1	criterion not met
CC1COCCN1c1cc(C2(S(C)(=N)=O)CC2)nc(-c2ccnc3[nH]ccc23)n1 (configuration not stated) + Cc1cncc(-c2nc(NCCc3c[nH]c4ccccc34)c3ncn(C(C)C)c3n2)c1	criterion not met
CC(C)c1c(-c2ccccc2)nc2c(C#N)c[nH]n2c1=O + Cc1ccccc1N=Nc1ccc(NC(=O)c2ccnn2C)c(C)c1	criterion not met
O=C(C=Cc1cccc(S(=O)(=O)Nc2ccccc2)c1)NO + CC(CO)NC(=O)c1cc(-c2ccc(Cl)cc2)nn(-c2cnn(C)c2)c1=O	criterion met
Nc1ccccc1NC(=O)c1ccc(CNC(=O)OCc2cccnc2)cc1 + CC(CO)NC(=O)c1cc(-c2ccc(Cl)cc2)nn(-c2cnn(C)c2)c1=O	criterion met
COc1cc(C2c3cc4c(cc3C(OC3OC5COC(C)OC5C(O)C3O)C3COC(=O)C23)OCO4)cc(OC)c1O (configuration not stated) + Cc1cncc(-c2nc(NCCc3c[nH]c4ccccc34)c3ncn(C(C)C)c3n2)c1	criterion not met
COc1ccc([C@@H](O)c2cc(-c3ncnc4cc(N5CCOCC5)ccc34)c(F)cc2Cl)nn1 + Cc1ccccc1N=Nc1ccc(NC(=O)c2ccnn2C)c(C)c1	criterion met

Prompt: Please determine if CC(C)c1c(-c2ccccc2)nc2c(C#N)c[nH]n2c1=O + Cc1cncc(-c2nc(NCCc3c[nH]c4ccccc34)c3ncn(C(C)C)c3n2)c1 is below 50% in terms of viability, T/C.
Completion: criterion not met

Prompt: Please determine if CC1(C)CCC(CN2CCN(c3ccc(C(=O)NS(=O)(=O)c4ccc(NCC5CCOCC5)c([N+](=O)[O-])c4)c(Oc4cnc5[nH]ccc5c4)c3)CC2)=C(c2ccc(Cl)cc2)C1 + CC(CO)NC(=O)c1cc(-c2ccc(Cl)cc2)nn(-c2cnn(C)c2)c1=O is below 50% in terms of viability, T/C.
Completion: criterion not met

Prompt: Please determine if CC(C)c1c(-c2ccccc2)nc2c(C#N)c[nH]n2c1=O + CC(CO)NC(=O)c1cc(-c2ccc(Cl)cc2)nn(-c2cnn(C)c2)c1=O is below 50% in terms of viability, T/C.
Completion: criterion not met

Prompt: Please determine if Nc1ccn(C2OC(CO)C(O)C2(F)F)c(=O)n1 (configuration not stated) + Cc1cncc(-c2nc(NCCc3c[nH]c4ccccc34)c3ncn(C(C)C)c3n2)c1 is below 50% in terms of viability, T/C.
Completion: criterion met
